Assign relative luminescence intensity (CDK6 = 100%) to each entry below.
# Study target: CDK4/cyclin D3 (UniProt P11802 1-303; P30281 1-292)
# Sequence (P11802 whole entry, chain 1 of 2): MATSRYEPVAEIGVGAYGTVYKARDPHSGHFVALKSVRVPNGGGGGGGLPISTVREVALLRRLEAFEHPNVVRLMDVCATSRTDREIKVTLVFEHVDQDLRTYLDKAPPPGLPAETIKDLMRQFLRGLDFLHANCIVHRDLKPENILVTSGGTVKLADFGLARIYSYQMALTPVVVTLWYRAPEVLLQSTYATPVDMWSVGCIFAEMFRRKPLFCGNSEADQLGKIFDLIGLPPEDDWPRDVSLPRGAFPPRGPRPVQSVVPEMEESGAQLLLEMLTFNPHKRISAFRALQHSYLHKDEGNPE
# Sequence (P30281 whole entry, chain 2 of 2): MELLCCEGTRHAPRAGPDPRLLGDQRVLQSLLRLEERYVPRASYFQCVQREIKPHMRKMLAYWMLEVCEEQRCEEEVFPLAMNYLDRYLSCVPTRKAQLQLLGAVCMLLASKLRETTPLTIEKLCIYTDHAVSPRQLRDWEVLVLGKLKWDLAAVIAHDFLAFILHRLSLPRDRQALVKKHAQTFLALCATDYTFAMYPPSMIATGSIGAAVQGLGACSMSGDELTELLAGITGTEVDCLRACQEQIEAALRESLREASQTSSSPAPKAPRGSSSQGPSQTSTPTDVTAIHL
# Measurement protocol: cell-based or functional assay
No end group written: not given here. *: point of attachment. aminohexane = linker joining biotin to the N-terminal residue; Biotin = O=C1N[C@H]2[C@H](CS[C@H]2CCCCC(=O)*)N1
Express your answer in %, writing the number without its unit.

Entry {Biotin-aminohexane}-GGGKAPLTPLDAD [Polypeptide 23] ; relative luminescence intensity (CDK6 = 100%) = 37

Memo: {Biotin-aminohexane}-RRRFRPASPLRGPPK [Comparative Polypeptide 2] , reported relative luminescence intensity (CDK6 = 100%): 245

relative luminescence intensity (CDK6 = 100%) for {Biotin-aminohexane}-RRRFRPASPLDGPPD [Polypeptide 18] is 14

Please fill in: relative luminescence intensity (CDK6 = 100%) reported for {Biotin-aminohexane}-GGGRAAPLSPIPHIPR [Comparative Polypeptide 6] = 190
